- Tested on: erythrocytes infected with 3D7 trophozoites
- Assay type: cell-based, Plasmodium falciparum
- settings: sheet Ratio; Exp2, 3hr
Peptide text beside a SMILES is read from it.
measured metric: Ratio of metabolite abundance, Exp2_3hr

INSERT INTO results (compound, measured_metric, number) VALUES
  ('O=C[C@H](O)COP(=O)(O)O [Glyceraldehyde 3-phosphate]', 'Ratio of metabolite abundance, Exp2_3hr', 0.6033),
  ('O=C1O[C@H]([C@H](O)CO)[C@H](O)[C@H]1O [D-Glucono-1-4-lactone]', 'Ratio of metabolite abundance, Exp2_3hr', 4.1814),
  ('CC(C)[C@H](N)C(=O)N[C@@H](CC(=O)O)C(=O)O [VD]', 'Ratio of metabolite abundance, Exp2_3hr', 1.368),
  ('CC(=O)N[C@H]1[C@@H](OP(=O)(O)OP(=O)(O)OC[C@H]2O[C@@H](n3ccc(=O)[nH]c3=O)[C@H](O)[C@@H]2O)O[C@H](CO)[C@@H](O)[C@@H]1O [UDP-N-acetyl-D-glucosamine]', 'Ratio of metabolite abundance, Exp2_3hr', 1.08),
  ('CC(C)[C@H](NC(=O)[C@H](C)NC(=O)[C@H](CC(=O)O)NC(=O)[C@@H]1CCCN1)C(=O)O [PDAV] (H-PDAV-OH)', 'Ratio of metabolite abundance, Exp2_3hr', 1.498),
  ('O=C(O)CCC(O)C(=O)O (centres unmarked) [2-Hydroxyglutarate]', 'Ratio of metabolite abundance, Exp2_3hr', 0.8007),
  ('O=CCCC(=O)O [Succinate semialdehyde]', 'Ratio of metabolite abundance, Exp2_3hr', 0.5836),
  ('NC(=O)C1=CN([C@@H]2O[C@H](COP(=O)(O)OP(=O)(O)OC[C@H]3O[C@@H](n4cnc5c(N)ncnc54)[C@H](O)[C@@H]3O)[C@@H](O)[C@H]2O)C=CC1 [NADH]', 'Ratio of metabolite abundance, Exp2_3hr', 0.5784);

Each recorded value in this set is attributed to paper PMC5298231.
